Each entry below lists one item and its recorded Bas value.
Organism: Rattus norvegicus
Experiment: Open TG-GATES - Regimen: Daily Repeat
Format: toxicity, organism-based, Sprague-Dawley
Set-up: regimen Daily Repeat, gender Male, age 6 weeks
Details: in vivo, po, 300 mg/kg, […], tissue Blood, route gavage, dose level Middle, time 14 day
# unit: % | format: bare number

Example entries begin here.
>  <Compound>
CN/C(=N/CCSCc1nc[nH]c1C)NC#N

>  <Bas, %>
0

$$$$
>  <Compound>
COC(=O)C1=C(C)NC(C)=C(C(=O)OC)C1c1ccccc1[N+](=O)[O-]

>  <Bas, %>
0

$$$$

Endpoint output: Bas of `Cc1nnc2n1-c1ccc(Cl)cc1C(c1ccccc1Cl)=NC2` . Value?
0.4

Endpoint output: Bas of `O=C(OC[C@H]1O[C@@H](OC(=O)c2cc(O)c(O)c(OC(=O)c3cc(O)c(O)c(O)c3)c2)[C@H](OC(=O)c2cc(O)c(O)c(OC(=O)c3cc(O)c(O)c(O)c3)c2)[C@@H](OC(=O)c2cc(O)c(O)c(OC(=O)c3cc(O)c(O)c(O)c3)c2)[C@@H]1OC(=O)c1cc(O)c(O)c(OC(=O)c2cc(O)c(O)c(O)c2)c1)c1cc(O)c(O)c(OC(=O)c2cc(O)c(O)c(O)c2)c1` . Value?
0

Endpoint output: Bas of `CCOc1ccc(NC(C)=O)cc1` . Value?
0.2

Endpoint output: Bas of `CNC(=C[N+](=O)[O-])NCCSCc1ccc(CN(C)C)o1` . Value?
0

* * *

Species on record: Rattus norvegicus
Assay: Open TG-GATES - Regimen: Daily Repeat
Assay type: toxicity, organism-based, Sprague-Dawley
Design: regimen Daily Repeat, gender Male, age 6 weeks
Conditions: in vivo, po, 1000 mg/kg, […], tissue Blood, route gavage, dose level High, time 28 day
Each entry below lists one item and its recorded Ht value.
# unit: % | format: bare number

Example entries begin here.
>  <Compound>
Cc1nnc2n1-c1ccc(Cl)cc1C(c1ccccc1Cl)=NC2 [TRIAZOLAM]

>  <Ht [%]>
45.2

$$$$
>  <Compound>
COC(=O)C1=C(C)NC(C)=C(C(=O)OC)C1c1ccccc1[N+](=O)[O-] [NIFEDIPINE]

>  <Ht [%]>
42.2

$$$$
>  <Compound>
O=C(OC[C@H]1O[C@@H](OC(=O)c2cc(O)c(O)c(OC(=O)c3cc(O)c(O)c(O)c3)c2)[C@H](OC(=O)c2cc(O)c(O)c(OC(=O)c3cc(O)c(O)c(O)c3)c2)[C@@H](OC(=O)c2cc(O)c(O)c(OC(=O)c3cc(O)c(O)c(O)c3)c2)[C@@H]1OC(=O)c1cc(O)c(O)c(OC(=O)c2cc(O)c(O)c(O)c2)c1)c1cc(O)c(O)c(OC(=O)c2cc(O)c(O)c(O)c2)c1 [TANNIC ACID]

>  <Ht [%]>
43

$$$$
>  <Compound>
CN/C(=N/CCSCc1nc[nH]c1C)NC#N [CIMETIDINE]

>  <Ht [%]>
43.2

$$$$

// switching to the query compound
Endpoint output: Ht of CNC(=C[N+](=O)[O-])NCCSCc1ccc(CN(C)C)o1 [RANITIDINE] . Value?
43.3

* * *

Each entry below lists one item and its recorded MCHC value.
Species on record: Rattus norvegicus
Test: Open TG-GATES - Regimen: Single
Format: toxicity, organism-based, Sprague-Dawley
Design: regimen Single, gender Male, age 6 weeks
Conditions: in vivo, po, 100 mg/kg, 9 h, tissue Blood, route gavage, dose level Low
# unit: % | format: bare number

Example entries begin here.
>  <Compound>
CNC(=C[N+](=O)[O-])NCCSCc1ccc(CN(C)C)o1

>  <MCHC [%]>
34.9

$$$$
>  <Compound>
O=C(OC[C@H]1O[C@@H](OC(=O)c2cc(O)c(O)c(OC(=O)c3cc(O)c(O)c(O)c3)c2)[C@H](OC(=O)c2cc(O)c(O)c(OC(=O)c3cc(O)c(O)c(O)c3)c2)[C@@H](OC(=O)c2cc(O)c(O)c(OC(=O)c3cc(O)c(O)c(O)c3)c2)[C@@H]1OC(=O)c1cc(O)c(O)c(OC(=O)c2cc(O)c(O)c(O)c2)c1)c1cc(O)c(O)c(OC(=O)c2cc(O)c(O)c(O)c2)c1

>  <MCHC [%]>
33.6

$$$$
>  <Compound>
CN/C(=N/CCSCc1nc[nH]c1C)NC#N

>  <MCHC [%]>
34.9

$$$$
>  <Compound>
Cc1nnc2n1-c1ccc(Cl)cc1C(c1ccccc1Cl)=NC2

>  <MCHC [%]>
32.7

$$$$

// switching to the query compound
Endpoint output: MCHC of `COC(=O)C1=C(C)NC(C)=C(C(=O)OC)C1c1ccccc1[N+](=O)[O-]` . Value?
32.9

Every entry's value here was drawn from ChEMBL document CHEMBL3885861.
